test system: Mus musculus; experiment: Plasma unbound clearance in mouse at 3 mg/kg, iv; format: ADME, organism-based; settings: in vivo
quantity_kind: clearance (mL/min/kg)

- CCS(=O)(=O)Nc1ccc(Oc2ccc(F)cc2F)c(-c2cn(C)c(=O)c3[nH]ccc23)c1: 317
- Cn1cc(-c2cc(NS(C)(=O)=O)ccc2Oc2ccc(F)cc2F)c2cc[nH]c2c1=O: 167
- Cn1cc(-c2cc(NS(C)(=O)=O)ccc2Oc2ccccc2)c2cc[nH]c2c1=O: 650

----------
assay: Permeability in MDCK cells; format: ADME, cell-based, Canis lupus familiaris; settings: dog, read-out: permeability
quantity_kind: Papp (×10⁻⁶ cm/s)

* CCS(=O)(=O)Nc1ccc(OCC(C)(C)C)c(-c2cn(C)c(=O)c3[nH]ccc23)c1 | 43
* CCS(=O)(=O)Nc1ccc(Oc2ccc(C(F)(F)F)cc2)c(-c2cn(C)c(=O)c3[nH]ccc23)c1 | 11
* CCNC(=O)c1ccc(Oc2ccccc2)c(-c2cn(C)c(=O)c3[nH]ccc23)c1 | 30
* CCS(=O)(=O)Nc1ccc(OC2CCC(N(C)C)CC2)c(-c2cn(C)c(=O)c3[nH]ccc23)c1 (centres undefined) | 2.7
* CCS(=O)(=O)Nc1ccc(Oc2cncnc2)c(-c2cn(C)c(=O)c3[nH]ccc23)c1 | 1
* COCCc1ccc(OCC(O)CNC(C)C)cc1 (centres undefined) | 36
* CC(=O)Nc1ccc(Oc2ccccc2)c(-c2cn(C)c(=O)c3[nH]ccc23)c1 | 28
* CCS(=O)(=O)Nc1ccc(Oc2ccccc2)c(-c2cn(C)c(=O)c3[nH]ccc23)c1 | 22
* Cn1cc(-c2cc(NS(C)(=O)=O)ccc2OC2CCC(F)(F)CC2)c2cc[nH]c2c1=O | 12

----------
assay: Plasma clearance in rat at 1 mg/kg, iv; assay type: ADME, organism-based
quantity_kind: clearance (mL/min/kg)

- CCS(=O)(=O)Nc1ccc(Oc2ccc(F)cc2F)c(-c2cn(C)c(=O)c3[nH]ccc23)c1 [MIVEBRESIB]: 10

----------
assay: Intrinsic clearance in human liver microsomes at 10 uM preincubated for 5 mins followed by NADPH addition measured after 60 mins by HPLC-UV-MS analysis; format: ADME, microsome; settings: read-out: CLH
quantity_kind: CLint scaled at 10 µM

* CCS(=O)(=O)Nc1ccc(Oc2ccc(F)cc2F)c(-c2cn(C)c(=O)c3[nH]ccc23)c1 | < 25 mL/min/kg

----------
assay: Intrinsic clearance in dog liver microsomes; format: ADME, Canis lupus familiaris, microsome; settings: read-out: CLH (converted)
quantity_kind: CLint scaled (mL/min/kg)

• CCS(=O)(=O)Nc1ccc(Oc2ccc(F)cc2F)c(-c2cn(C)c(=O)c3[nH]ccc23)c1 [MIVEBRESIB] = 51.7

----------
assay: Plasma clearance in iv dosed human; format: ADME, organism-based
quantity_kind: clearance

• CCS(=O)(=O)Nc1ccc(Oc2ccc(F)cc2F)c(-c2cn(C)c(=O)c3[nH]ccc23)c1 = 2.33 mL/min/kg

----------
experiment: Half life in po dosed monkey; assay type: ADME, organism-based, Macaca mulatta; conditions: rhesus monkey, in vivo
quantity_kind: half-life (h)

• CCS(=O)(=O)Nc1ccc(Oc2ccc(F)cc2F)c(-c2cn(C)c(=O)c3[nH]ccc23)c1 = 4.4

----------
Papp values, listed per item
experiment: Permeability in MDCK cells; assay type: ADME, cell-based, Canis lupus familiaris; settings: dog, read-out: permeability
quantity_kind: Papp (×10⁻⁶ cm/s)

* Cn1cc(-c2cc(NS(C)(=O)=O)ccc2Oc2cccnc2)c2cc[nH]c2c1=O | 3
* Cn1cc(-c2cc(C(N)=O)ccc2Oc2ccccc2)c2cc[nH]c2c1=O | 14
* CCS(=O)(=O)Nc1ccc(Oc2ccc(C#N)cc2)c(-c2cn(C)c(=O)c3[nH]ccc23)c1 | 11
* Cn1cc(-c2cc(NS(C)(=O)=O)ccc2Oc2ccc(F)cc2Cl)c2cc[nH]c2c1=O | 11
* Cn1cc(-c2cc(S(C)(=O)=O)ccc2Oc2ccccc2)c2cc[nH]c2c1=O | 24
* Cn1cc(-c2ccccc2Oc2ccccc2)c2cc[nH]c2c1=O | 31
* CCS(=O)(=O)Nc1ccc(Oc2ccc(Cl)cc2)c(-c2cn(C)c(=O)c3[nH]ccc23)c1 | 21
* Cn1cc(-c2cc(S(N)(=O)=O)ccc2Oc2ccccc2)c2cc[nH]c2c1=O | 22
* CN(C)S(=O)(=O)Nc1ccc(Oc2ccccc2)c(-c2cn(C)c(=O)c3[nH]ccc23)c1 | 19
* Cn1cc(-c2cc(NS(C)(=O)=O)cnc2Oc2ccccc2)c2cc[nH]c2c1=O | 6

----------
tested on: Liver; assay: Unbound intrinsic clearance in mouse liver microsomes; format: ADME, microsome
quantity_kind: CL free (L/h/kg)

- Cn1cc(-c2cc(NS(C)(=O)=O)ccc2OC2CCCCC2)c2cc[nH]c2c1=O: 220
- Cn1cc(-c2cc(C(N)=O)ccc2Oc2ccccc2)c2cc[nH]c2c1=O: 27
- CCS(=O)(=O)Nc1ccc(Oc2cncnc2)c(-c2cn(C)c(=O)c3[nH]ccc23)c1: 14

----------
tested on: Liver; assay: Unbound intrinsic clearance in rat liver microsomes at 10 uM preincubated for 5 mins followed by NADPH addition measured after 60 mins by HPLC-UV-MS analysis; format: ADME, microsome; conditions: 1 h
quantity_kind: log10 CL free (log10 of the value in mL/min/kg)

* Cn1cc(-c2cc(S(C)(=O)=O)ccc2Oc2ccccc2)c2cc[nH]c2c1=O | 3.03
* Cn1cc(-c2ccccc2Oc2ccccc2)c2cc[nH]c2c1=O | 4.60
* Cn1cc(-c2cc(NS(C)(=O)=O)ccc2OC2CCOCC2)c2cc[nH]c2c1=O | 2.37
* CCS(=O)(=O)Nc1ccc(Oc2ccc(C(F)(F)F)cc2)c(-c2cn(C)c(=O)c3[nH]ccc23)c1 | 2.77
* CCS(=O)(=O)Nc1ccc(Oc2cncnc2)c(-c2cn(C)c(=O)c3[nH]ccc23)c1 | 1.68
* Cn1cc(-c2cc(C(N)=O)ccc2Oc2ccccc2)c2cc[nH]c2c1=O | 2.74
* CCS(=O)(=O)Nc1ccc(Oc2c(F)cc(F)cc2F)c(-c2cn(C)c(=O)c3[nH]ccc23)c1 | 2.37
* CC(=O)Nc1ccc(Oc2ccccc2)c(-c2cn(C)c(=O)c3[nH]ccc23)c1 | 2.88
* Cn1cc(-c2cc(NS(C)(=O)=O)ccc2OC2CCCCC2)c2cc[nH]c2c1=O | 3.20

----------
molecular target: Bromodomain-containing protein 4 (Homo sapiens, UniProt O60885); assay: Inhibition of BRD4 in human H1299 cells assessed as decrease in HPV LCR-E2-EP400-mediated transcriptional repression after 24 hrs by Bright-Glo luciferase reporter gene assay
pEC50: −log10 of the molar value.
pEC50 values, listed per item
quantity_kind: pEC50

• CCS(=O)(=O)Nc1ccc(OCC(C)(C)C)c(-c2cn(C)c(=O)c3[nH]ccc23)c1 = 7.10
• Cc1cc(-c2ccccc2Oc2ccccc2)c[nH]c1=O = 5.64
• Cn1cc(-c2cc(NS(C)(=O)=O)ccc2Oc2cccnc2)c2cc[nH]c2c1=O = 7.17
• CCS(=O)(=O)Nc1ccc(Oc2ccc(Cl)cc2)c(-c2cn(C)c(=O)c3[nH]ccc23)c1 = 7.77
• Cn1cc(-c2cc(NS(C)(=O)=O)ccc2OC2CCC(F)(F)CC2)c2cc[nH]c2c1=O = 7.70
• Cn1cc(-c2cc(NS(C)(=O)=O)ccc2Oc2ccc(F)cc2Cl)c2cc[nH]c2c1=O = 7.46
• Cn1cc(-c2cc(NS(C)(=O)=O)cnc2Oc2ccccc2)c2cc[nH]c2c1=O = 7.06

----------
CL free values, listed per item
test system: Liver; assay: Unbound intrinsic clearance in rat liver microsomes at 10 uM preincubated for 5 mins followed by NADPH addition measured after 60 mins by HPLC-UV-MS analysis; type: ADME, microsome; details: 1 h
quantity_kind: CL free

* Cn1cc(-c2cc(NS(C)(=O)=O)ccc2Oc2ccc(F)cc2F)c2cc[nH]c2c1=O | < 65 mL/min/kg
* CCS(=O)(=O)Nc1ccc(Oc2ccc(F)cc2F)c(-c2cn(C)c(=O)c3[nH]ccc23)c1 | < 81.7 mL/min/kg
* CCS(=O)(=O)Nc1ccc(OC2CCC(N(C)C)CC2)c(-c2cn(C)c(=O)c3[nH]ccc23)c1 (stereo not drawn) | < 45 mL/min/kg

----------
tested on: Liver; test: Unbound intrinsic clearance in mouse liver microsomes; format: ADME, microsome
CL free values, listed per item
quantity_kind: CL free (mL/min/kg)

- CCS(=O)(=O)Nc1ccc(Oc2ccccc2)c(-c2cn(C)c(=O)c3[nH]ccc23)c1: 917
- Cn1cc(-c2cc(NS(C)(=O)=O)ccc2OC2CCC(F)(F)CC2)c2cc[nH]c2c1=O: 717
- Cn1cc(-c2cc(NS(C)(=O)=O)ccc2Oc2cccnc2)c2cc[nH]c2c1=O: 533
- CCS(=O)(=O)Nc1ccc(Oc2ccc(F)cc2F)c(-c2cn(C)c(=O)c3[nH]ccc23)c1 [MIVEBRESIB]: 550
- CCS(=O)(=O)Nc1ccc(Oc2ccc(Cl)cc2)c(-c2cn(C)c(=O)c3[nH]ccc23)c1: 900
- Cn1cc(-c2cc(NS(C)(=O)=O)ccc2Oc2ccc(F)cc2F)c2cc[nH]c2c1=O: 283
- Cn1cc(-c2cc(NS(C)(=O)=O)ccc2Oc2ccccc2)c2cc[nH]c2c1=O: 300
- CN(C)S(=O)(=O)Nc1ccc(Oc2ccccc2)c(-c2cn(C)c(=O)c3[nH]ccc23)c1: 2330
- CCS(=O)(=O)Nc1ccc(Oc2ccc(C(F)(F)F)cc2)c(-c2cn(C)c(=O)c3[nH]ccc23)c1: 2830
